Source listed as patent US20160137696A1.

Target: T1, Recombinant Human PD-L1-TVMV-His (human, UniProt Q9NZQ7 19-239)
T1 construct: expressed in HEK293T cells; also called PD-L1-His; hPD-L1(19-239)-TVMV-His
T1 sequence (Q9NZQ7 other isoform, or with tags, fused parts or gaps limits assumed): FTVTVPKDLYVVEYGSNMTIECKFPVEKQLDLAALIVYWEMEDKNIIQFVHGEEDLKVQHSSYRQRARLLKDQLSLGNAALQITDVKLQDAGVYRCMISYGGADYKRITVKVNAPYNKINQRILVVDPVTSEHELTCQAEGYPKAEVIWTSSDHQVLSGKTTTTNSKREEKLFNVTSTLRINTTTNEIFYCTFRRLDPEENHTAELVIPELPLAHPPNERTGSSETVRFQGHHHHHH
Assay: HTRF vs PD-1-Ig; A = IC50 0.10-1.6 µM
Excerpt: Homogenous Time-Resolved Fluorescence (HTRF) Assays of Binding of Soluble PD-1 to Soluble PD-L1. Soluble PD-1 and soluble PD-L1 refers to proteins with carboxyl-end truncations that remove the transmembrane-spanning regions and are fused to heterologous sequences, specifically the Fc portion of the human immunoglobuling G sequence (Ig) or the hexahistidine epitope tag (His). […]
Starred links: 1 amine or outer side, 2 acyl side, 3 side chain; linkers in the order of their positions; H or OH if unused. Positions of bridges follow the written chain, without caps; N, C: chain ends. Non-standard residues stand in square brackets, D forms with d. Groups on a side chain read outwards from the residue. Primed or numbered codes have the meaning given here. No end group written: not given here. *: point of attachment. PEG8′ = PEG8 unit (23-azido-3,6,9,12,15,18,21-heptaoxatricosyl, i.e. an eight-unit PEG spacer) linking the triazole to vitamin E succinate; Pra′ = propargylglycine (built in as LPH), clicked to a 1-substituted triazol-4-yl-alanine, O=C([C@H](Cc1cn([*:3])nn1)N[*:1])[*:2]; PEG6′ = PEG6 spacer (17-azido-3,6,9,12,15-pentaoxaheptadecyl) linking the triazole to vitamin E succinate; Pra″ = its azide, alkyne or alkene has reacted where a group follows in round brackets; X2 = (S)‑3‑carboxy‑3‑palmitamidopropyl, CCCCCCCCCCCCCCCC(=O)N[C@@H](CC*)C(=O)O; Pra(3) = propargylglycine, clicked to an azide to give a triazolyl-alanine; triazole = 1,2,3-triazole formed by click of the Pra alkyne with the azide; Trp(1-CH2CO) = O=C([C@H](Cc1cn(CC(=O)[*:3])c2ccccc12)N[*:1])[*:2]; Phe(3,4,5-F3) = N[C@@H](Cc1cc(F)c(F)c(F)c1)C(=O)O; Hyp = O=C(O)[C@@H]1C[C@@H](O)CN1; NMeF = CN[C@@H](Cc1ccccc1)C(=O)O; NMeNle = CCCC[C@H](NC)C(=O)O; Suc = O=C(CCC(=O)[*:2])[*:1]; triazole″ = not defined here; Bzt = benzothienylalanine; NMeA = CN[C@@H](C)C(=O)O; Orn = NCCC[C@H](N)C(=O)O; PEG4′ = not defined here; Pra = C#CC[C@H](N)C(=O)O; Dab = NCC[C@H](N)C(=O)O; Dap = NC[C@H](N)C(=O)O
readout: IC50

binder="{CH2CO}-Y[NMeA]NP[Dap]L[Hyp]WS[Bzt][NMeNle][NMeNle]RCG[Pra] (thioether N-14; not fully specified (residue 16)) [Example 14058]" readout=IC50 observed="100 to 1600 nM"
binder="{CH2CO}-Y[NMeA]NP[Dap]L[Hyp]W[Dab][Trp(1-CH2CO)][NMeNle][NMeNle]LCGG[Pra″]([triazole-(S)‑4‑azido‑2‑palmitamidobutanoic acid]) (thioether N-14 (inferred)) [Example 13122]" readout=IC50 observed="100 to 1600 nM"
binder="YADPHKPWKWXXECGXG (as m106 (INT 1400A); Pra triazole-linked to vitamin E succinate 5-azidopentylamide) [Example 14051]" readout=IC50 observed="100 to 1600 nM"
binder="YADPHQPWSWXXECGXG (as m108 (INT 1400C); Pra triazole-linked to vitamin E succinate 5-azidopentylamide) [Example 14054]" readout=IC50 observed="100 to 1600 nM"
binder="FFXPDVFXPWYLCGX (as m16 (INT 1400K); Pra triazole-linked to vitamin E succinate 5-azidopentylamide) [Example 14087]" readout=IC50 observed="100 to 1600 nM"
binder="{CH2CO}-Y[NMeA]DPHK[Hyp]WKW[NMeNle][NMeNle]ECG[Pra(3)]([triazole″-PEG6′-Suc-vitamin E])G (thioether N-14; reading uncertain) [Example 14053]" readout=IC50 observed="100 to 1600 nM"
binder="{CH2CO}-Y[NMeA]DPHK[Hyp]WKW[NMeNle][NMeNle]ECG[Pra(3)]([triazole″-PEG4′-Suc-vitamin E])G (thioether N-14; reading uncertain) [Example 14060]" readout=IC50 observed="100 to 1600 nM"
binder="{CH2CO}-Y[NMeA]DPHK[Hyp]WKW[NMeNle][NMeNle]ECG[Pra(3)]([triazole″-PEG8′-Suc-vitamin E])D (thioether N-14; reading uncertain) [Example 14057]" readout=IC50 observed="100 to 1600 nM"
binder="YADPHKPWKWXXECGXD (as m107 (INT 1400B); Pra triazole-linked to vitamin E succinate 5-azidopentylamide) [Example 14056]" readout=IC50 observed="100 to 1600 nM"
binder="{CH2CO}-[Phe(3,4,5-F3)][NMeF][NMeNle][dP]DV[NMeF][Orn][dP]WYLCG[Pra′]([triazole-X2]) (thioether N-13) [Example 14081]" readout=IC50 observed="100 to 1600 nM"
